Study System: beta-lactamase class D OXA-48 (Klebsiella pneumoniae)
Format: biochemical
Study Conditions: Meropenem 20.0 mg/L, second β-lactam 200.0 mg/L (10 times excess), replicate 5
Would you kindly list Accuracy Replicate 5 for each of these compounds?
Give bare numbers, in %.

Chem Smiles	Quantity Unit	Value
CC(C)(O/N=C(\C(=O)N[C@@H]1C(=O)N2C(C(=O)[O-])=C(C[n+]3ccccc3)CS[C@H]12)c1csc(N)n1)C(=O)O	%	99
CC1(C)S[C@@H]2[C@H](NC(=O)[C@H](C(=O)O)c3ccsc3)C(=O)N2[C@H]1C(=O)O	%	98
CO/N=C(\C(=O)N[C@@H]1C(=O)N2C(C(=O)O)=C(CSc3nc(=O)c(O)nn3C)CS[C@H]12)c1csc(N)n1	%	91

The record that follows has no Accuracy Replicate 5 shown yet.
# Accuracy Replicate 5 of "C[C@@H](O)[C@H]1C(=O)N2C(C(=O)O)=C(S[C@@H]3CN[C@H](C(=O)N(C)C)C3)[C@H](C)[C@H]12" = 97

---

Exercise: for every item that follows, state its recorded [Meropenem] Replicate 2.
Study System: beta-lactamase class D OXA-48 (Klebsiella pneumoniae, UniProt Q6XEC0)
Sequence (Q6XEC0 23-265 limits assumed): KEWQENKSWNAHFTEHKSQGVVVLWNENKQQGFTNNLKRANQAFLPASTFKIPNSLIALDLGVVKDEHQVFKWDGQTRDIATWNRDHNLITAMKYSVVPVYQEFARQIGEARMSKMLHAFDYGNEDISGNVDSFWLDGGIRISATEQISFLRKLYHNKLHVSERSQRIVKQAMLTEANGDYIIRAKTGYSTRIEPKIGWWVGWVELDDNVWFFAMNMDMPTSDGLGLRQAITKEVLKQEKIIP
Type: biochemical
Study Conditions: Meropenem 20.0 mg/L, second β-lactam 200.0 mg/L (10 times excess), replicate 2
One number for each entry, in mg/L.

Recorded [Meropenem] Replicate 2, per entry:
Molecule	[Meropenem] Replicate 2 [mg/L]
CO/N=C(\C(=O)N[C@@H]1C(=O)N2C(C(=O)O)=C(CSc3nc(=O)c(O)nn3C)CS[C@H]12)c1csc(N)n1 [Ceftria ®]	21.4
CO/N=C(\C(=O)N[C@@H]1C(=O)N2C(C(=O)O)=C(COC(N)=O)CS[C@H]12)c1ccco1 [Zinacef ®]	21.9
CO/N=C(\C(=O)N[C@@H]1C(=O)N2C(C(=O)O)=C(COC(C)=O)CS[C@H]12)c1csc(N)n1 [Cefotaxim ® Sandoz]	20.9

Summary for this molecule, Cc1onc(-c2ccccc2)c1C(=O)N[C@@H]1C(=O)N2[C@@H]1SC(C)(C)[C@@H]2C(=O)O [Penstapho ®] : [Meropenem] Replicate 2 is 23.2

---

Study System: beta-lactamase class D OXA-48 (Klebsiella pneumoniae)
Assay type: biochemical
Study Conditions: Meropenem 1.2 mg/L, second β-lactam 10.0 mg/L (8.4 times excess), replicate 2
Provide the recorded [Meropenem] Replicate 2 for the entries that follow.
One number for each entry, in mg/L.

Would you be so kind as to report [Meropenem] Replicate 2 for each listed record?
1. CC(C)(O/N=C(\C(=O)N[C@@H]1C(=O)N2C(C(=O)[O-])=C(C[n+]3ccccc3)CS[C@H]12)c1csc(N)n1)C(=O)O
2. Cn1nnnc1SCC1=C(C(=O)O)N2C(=O)[C@@H](NC(=O)[C@H](O)c3ccccc3)[C@H]2SC1

1.2
1.3

I'm hoping you can list [Meropenem] Replicate 2 for every molecule here, please.
1. Cc1onc(-c2ccccc2)c1C(=O)N[C@@H]1C(=O)N2[C@@H]1SC(C)(C)[C@@H]2C(=O)O
2. CC1(C)S[C@@H]2[C@H](NC(=O)[C@H](C(=O)O)c3ccsc3)C(=O)N2[C@H]1C(=O)O
3. CO/N=C(\C(=O)N[C@@H]1C(=O)N2C(C(=O)O)=C(COC(N)=O)CS[C@H]12)c1ccco1
4. C[C@@H](O)[C@H]1C(=O)N2C(C(=O)O)=C(S[C@@H]3CN[C@H](C(=O)N(C)C)C3)[C@H](C)[C@H]12
5. CO/N=C(\C(=O)N[C@@H]1C(=O)N2C(C(=O)O)=C(CSc3nc(=O)c(O)nn3C)CS[C@H]12)c1csc(N)n1

[1.4, 1.4, 1.1, 1.2, 1.3]

Give [Meropenem] Replicate 2 for all molecules that follow.
1. CO/N=C(\C(=O)N[C@@H]1C(=O)N2C(C(=O)O)=C(COC(C)=O)CS[C@H]12)c1csc(N)n1
2. CC1(C)S[C@@H]2[C@H](NC(=O)[C@H](N)c3ccccc3)C(=O)N2[C@H]1C(=O)O

1.3
1.3

---

Study System: beta-lactamase class D OXA-48 (Klebsiella pneumoniae, UniProt Q6XEC0)
Type: biochemical
Study Conditions: Meropenem 1.2 mg/L, second β-lactam 10.0 mg/L (8.4 times excess), replicate 2
Can you tell me Accuracy Replicate 2 for the items I'm about to list?
Answers are plain numbers, in %.

Illustrative cases are given below, each with its answer.
Compound	Value
CO/N=C(\C(=O)N[C@@H]1C(=O)N2C(C(=O)O)=C(COC(C)=O)CS[C@H]12)c1csc(N)n1 [Cefotaxim ® Sandoz]	116
CC1(C)S[C@@H]2[C@H](NC(=O)[C@H](N)c3ccccc3)C(=O)N2[C@H]1C(=O)O [Pentrexyl ®]	112
CC1(C)S[C@@H]2[C@H](NC(=O)[C@H](C(=O)O)c3ccsc3)C(=O)N2[C@H]1C(=O)O [Ticarpen ®]	122
C[C@@H](O)[C@H]1C(=O)N2C(C(=O)O)=C(S[C@@H]3CN[C@H](C(=O)N(C)C)C3)[C@H](C)[C@H]12 [Meropenem, meropenem]	100
CO/N=C(\C(=O)N[C@@H]1C(=O)N2C(C(=O)O)=C(CSc3nc(=O)c(O)nn3C)CS[C@H]12)c1csc(N)n1 [Ceftria ®]	111

Dear colleague, could you send me Accuracy Replicate 2 for each of the items below? Thanks.
1. CO/N=C(\C(=O)N[C@@H]1C(=O)N2C(C(=O)O)=C(COC(N)=O)CS[C@H]12)c1ccco1 [Zinacef ®]
2. Cn1nnnc1SCC1=C(C(=O)O)N2C(=O)[C@@H](NC(=O)[C@H](O)c3ccccc3)[C@H]2SC1 [Cefamandole ®, Cefamandole]
3. CC(C)(O/N=C(\C(=O)N[C@@H]1C(=O)N2C(C(=O)[O-])=C(C[n+]3ccccc3)CS[C@H]12)c1csc(N)n1)C(=O)O [Ceftazidime]
4. Cc1onc(-c2ccccc2)c1C(=O)N[C@@H]1C(=O)N2[C@@H]1SC(C)(C)[C@@H]2C(=O)O [Penstapho ®]

[97, 116, 105, 123]

---

Kindly state Accuracy Replicate 3 for each of the entries shown.
Study System: beta-lactamase class D OXA-48 (Klebsiella pneumoniae)
Assay type: biochemical
Study Conditions: Meropenem 20.0 mg/L, second β-lactam 200.0 mg/L (10 times excess), replicate 3
Answers are plain numbers, in %.

Look over these answered cases.
Chem Smiles	Quantity Unit	Value
C[C@@H](O)[C@H]1C(=O)N2C(C(=O)O)=C(S[C@@H]3CN[C@H](C(=O)N(C)C)C3)[C@H](C)[C@H]12	%	98
CO/N=C(\C(=O)N[C@@H]1C(=O)N2C(C(=O)O)=C(COC(N)=O)CS[C@H]12)c1ccco1	%	95
CC1(C)S[C@@H]2[C@H](NC(=O)[C@H](N)c3ccccc3)C(=O)N2[C@H]1C(=O)O	%	96
Cc1onc(-c2ccccc2)c1C(=O)N[C@@H]1C(=O)N2[C@@H]1SC(C)(C)[C@@H]2C(=O)O	%	104
Cn1nnnc1SCC1=C(C(=O)O)N2C(=O)[C@@H](NC(=O)[C@H](O)c3ccccc3)[C@H]2SC1	%	99

Give one value of Accuracy Replicate 3 per listed compound.
1. CO/N=C(\C(=O)N[C@@H]1C(=O)N2C(C(=O)O)=C(COC(C)=O)CS[C@H]12)c1csc(N)n1
2. CC1(C)S[C@@H]2[C@H](NC(=O)[C@H](C(=O)O)c3ccsc3)C(=O)N2[C@H]1C(=O)O
3. CC(C)(O/N=C(\C(=O)N[C@@H]1C(=O)N2C(C(=O)[O-])=C(C[n+]3ccccc3)CS[C@H]12)c1csc(N)n1)C(=O)O

1: 91; 2: 104; 3: 100

Just so you know, measured Accuracy Replicate 3 for "CO/N=C(\C(=O)N[C@@H]1C(=O)N2C(C(=O)O)=C(CSc3nc(=O)c(O)nn3C)CS[C@H]12)c1csc(N)n1" came out at 96

---

Would you mind telling me the reported [Meropenem] Replicate 1 of each entry?
Study System: beta-lactamase class D OXA-48 (Klebsiella pneumoniae, UniProt Q6XEC0)
Format: biochemical
Study Conditions: Meropenem 1.2 mg/L, second β-lactam 10.0 mg/L (8.4 times excess), replicate 1
One number for each entry, in mg/L.

Known [Meropenem] Replicate 1 results, listed for orientation:
Compound	Study System	Quantity Unit	[Meropenem] Replicate 1
CO/N=C(\C(=O)N[C@@H]1C(=O)N2C(C(=O)O)=C(COC(C)=O)CS[C@H]12)c1csc(N)n1 [Cefotaxim ® Sandoz]	beta-lactamase class D OXA-48 (Klebsiella pneumoniae, UniProt Q6XEC0)	mg/L	1.3
Cc1onc(-c2ccccc2)c1C(=O)N[C@@H]1C(=O)N2[C@@H]1SC(C)(C)[C@@H]2C(=O)O [Penstapho ®]	beta-lactamase class D OXA-48 (Klebsiella pneumoniae, UniProt Q6XEC0)	mg/L	1.3
CO/N=C(\C(=O)N[C@@H]1C(=O)N2C(C(=O)O)=C(CSc3nc(=O)c(O)nn3C)CS[C@H]12)c1csc(N)n1 [Ceftria ®]	beta-lactamase class D OXA-48 (Klebsiella pneumoniae, UniProt Q6XEC0)	mg/L	1.2

Required: [Meropenem] Replicate 1, one value per compound below.
1. CC(C)(O/N=C(\C(=O)N[C@@H]1C(=O)N2C(C(=O)[O-])=C(C[n+]3ccccc3)CS[C@H]12)c1csc(N)n1)C(=O)O [Ceftazidime]
2. Cn1nnnc1SCC1=C(C(=O)O)N2C(=O)[C@@H](NC(=O)[C@H](O)c3ccccc3)[C@H]2SC1 [Cefamandole ®, Cefamandole]
3. CC1(C)S[C@@H]2[C@H](NC(=O)[C@H](N)c3ccccc3)C(=O)N2[C@H]1C(=O)O [Pentrexyl ®]
4. C[C@@H](O)[C@H]1C(=O)N2C(C(=O)O)=C(S[C@@H]3CN[C@H](C(=O)N(C)C)C3)[C@H](C)[C@H]12 [Meropenem, meropenem]
5. CO/N=C(\C(=O)N[C@@H]1C(=O)N2C(C(=O)O)=C(COC(N)=O)CS[C@H]12)c1ccco1 [Zinacef ®]

1: 1.3; 2: 1.3; 3: 1.4; 4: 1.1; 5: 1.3

Reported [Meropenem] Replicate 1 of CC1(C)S[C@@H]2[C@H](NC(=O)[C@H](C(=O)O)c3ccsc3)C(=O)N2[C@H]1C(=O)O [Ticarpen ®] : 1.4
